// data source = PubChem BioAssay (Tox21)

- EXPERIMENTAL_SYSTEM: Glucocorticoid receptor (Homo sapiens) (UniProt P04150)
- Sequence (P04150 whole entry, looked up): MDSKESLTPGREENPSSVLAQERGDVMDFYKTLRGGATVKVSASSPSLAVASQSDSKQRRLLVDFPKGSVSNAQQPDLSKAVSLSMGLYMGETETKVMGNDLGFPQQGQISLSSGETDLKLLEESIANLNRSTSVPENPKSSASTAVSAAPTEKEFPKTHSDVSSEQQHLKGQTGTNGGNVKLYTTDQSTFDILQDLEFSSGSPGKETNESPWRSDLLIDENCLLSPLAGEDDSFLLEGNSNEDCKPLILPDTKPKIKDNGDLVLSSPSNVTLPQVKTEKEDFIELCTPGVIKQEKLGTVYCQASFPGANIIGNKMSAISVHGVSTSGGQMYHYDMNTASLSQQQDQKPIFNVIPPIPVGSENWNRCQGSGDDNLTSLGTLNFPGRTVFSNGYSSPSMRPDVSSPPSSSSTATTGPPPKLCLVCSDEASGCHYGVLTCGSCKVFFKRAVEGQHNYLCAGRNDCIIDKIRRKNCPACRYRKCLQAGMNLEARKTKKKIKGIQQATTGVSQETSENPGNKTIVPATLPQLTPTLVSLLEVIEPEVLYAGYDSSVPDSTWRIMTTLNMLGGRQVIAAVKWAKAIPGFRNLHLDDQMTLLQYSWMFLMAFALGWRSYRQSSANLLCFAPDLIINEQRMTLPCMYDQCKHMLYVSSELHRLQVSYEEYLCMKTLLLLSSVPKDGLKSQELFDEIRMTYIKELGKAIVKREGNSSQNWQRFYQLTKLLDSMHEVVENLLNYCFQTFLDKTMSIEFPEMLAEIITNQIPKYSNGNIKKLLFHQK
- EXPERIMENT_SUMMARY: qHTS assay to identify small molecule agonists of the glucocorticoid receptor (GR) signaling pathway (AID 720691)
- SETUP_CONDITIONS: GR-bla HeLa, beta-lactamase reporter ratio, 18 h; series mostly up to 62.4 µM
Inconclusive results are not listed. Activity calls are given as the source filed them. Calls follow the shape of the dose curve; as a rule, active = well fitted activation curve with a large enough effect in the signal ratio in the repeat runs (not every such curve was filed as active); inconclusive = weak or mixed curves, or effect the other way; inactive = no such curve, though single readings can be large or run the other way; the % refers to the signal ratio.
Would you mind answering with one of these outcomes? active, inactive

### Prompt Answer briefly: the call reported for CC(C)(C)C(=O)/C=C/c1ccc(Cl)cc1 in this assay.
### Response inactive

### Prompt Answer briefly: the call reported for C[C@H](O)C(=O)Nc1c(I)c(C(=O)NC(CO)CO)c(I)c(C(=O)NC(CO)CO)c1I in this assay.
### Response active

### Prompt Answer briefly: the call reported for O=C(O)Cc1cc(I)c(Oc2cc(I)c(O)c(I)c2)c(I)c1 in this assay.
### Response inactive

### Prompt Answer briefly: the call reported for CCO[Si](C)(OCC)OCC in this assay.
### Response inactive

### Prompt Answer briefly: the call reported for O=S(=O)(O)c1ccccc1O in this assay.
### Response inactive

### Prompt Answer briefly: the call reported for Cc1onc(-c2ccccc2)c1-c1ccc(S(N)(=O)=O)cc1 in this assay.
### Response inactive

### Prompt Answer briefly: the call reported for CC(C=O)Cc1ccc(C(C)C)cc1 (stereo not given) in this assay.
### Response inactive

### Prompt Answer briefly: the call reported for COc1nc(C)nc(N)n1 in this assay.
### Response inactive

### Prompt Answer briefly: the call reported for O=C(O)/C=C/c1ccc(/C=C/C(=O)O)cc1 in this assay.
### Response inactive

### Prompt Answer briefly: the call reported for Cc1ncc(CSSCc2cnc(C)c(O)c2CO)c(CO)c1O in this assay.
### Response inactive

====

- EXPERIMENT_SUMMARY: qHTS assay to identify small molecule antagonists of the thyroid receptor (TR) signaling pathway (AID 743065); also: nearly all actives have a fitted effect of over 55% in size
- SETUP_CONDITIONS: GH3.TRE-Luc, T3-stimulated luciferase inhibition, 23.5 h; series mostly up to 70.3 µM
Results filed as inconclusive are left out. The source made the active and inactive calls. Calls come from the whole dose curve; as a rule, active = well fitted inhibition curve with a large enough effect in the repeat runs; inconclusive = weak or mixed curves; inactive = no such curve, though single readings can be large or run the other way.
Would you mind answering with one of these outcomes? active, inactive

### Prompt Answer briefly: the call reported for C1COCCO1 in this assay.
### Response inactive

### Prompt Answer briefly: the call reported for CC(C)N1C(=O)c2ccccc2C1=O in this assay.
### Response inactive

### Prompt Answer briefly: the call reported for CCOC(=O)Cn1c(=O)sc2cccc(Cl)c21 in this assay.
### Response inactive

### Prompt Answer briefly: the call reported for CO in this assay.
### Response inactive

### Prompt Answer briefly: the call reported for C[N+](C)(C)CC[N+]1(C)Cc2c(Cl)c(Cl)c(Cl)c(Cl)c2C1 in this assay.
### Response inactive

### Prompt Answer briefly: the call reported for C1CCCCCCCCCCC1 in this assay.
### Response inactive

### Prompt Answer briefly: the call reported for O=C(O)c1ccc[n+]([O-])c1 in this assay.
### Response inactive

### Prompt Answer briefly: the call reported for Cc1ccc(N)cc1[N+](=O)[O-] in this assay.
### Response inactive

### Prompt Answer briefly: the call reported for CCCCCCCCC=O in this assay.
### Response inactive

### Prompt Answer briefly: the call reported for CCCCCCC(=O)OCC in this assay.
### Response inactive

### Prompt Answer briefly: the call reported for CN(C)C(=O)C(CCN1CCC(O)(c2ccc(Cl)cc2)CC1)(c1ccccc1)c1ccccc1 in this assay.
### Response active

### Prompt Answer briefly: the call reported for [O-][N+](=Nc1ccccc1)c1ccccc1 in this assay.
### Response inactive

### Prompt Answer briefly: the call reported for Cc1onc(-c2ccccc2)c1-c1ccc(S(N)(=O)=O)cc1 in this assay.
### Response inactive

### Prompt Answer briefly: the call reported for COc1cc(CCC(C)=O)ccc1O in this assay.
### Response inactive

### Prompt Answer briefly: the call reported for CC(C)(C)CC(C)(C)N in this assay.
### Response inactive
